# Lookup of reported Relative Enzyme Activity (%) keyed by entry
measured.on: phytase derived from B. amyloliquefaciens DS-11 (Bacillus sp., UniProt O66037)
Construct: made in house; host or cells: Bacillus subtilis DB104/pJPK
Sequence (O66037 31-383): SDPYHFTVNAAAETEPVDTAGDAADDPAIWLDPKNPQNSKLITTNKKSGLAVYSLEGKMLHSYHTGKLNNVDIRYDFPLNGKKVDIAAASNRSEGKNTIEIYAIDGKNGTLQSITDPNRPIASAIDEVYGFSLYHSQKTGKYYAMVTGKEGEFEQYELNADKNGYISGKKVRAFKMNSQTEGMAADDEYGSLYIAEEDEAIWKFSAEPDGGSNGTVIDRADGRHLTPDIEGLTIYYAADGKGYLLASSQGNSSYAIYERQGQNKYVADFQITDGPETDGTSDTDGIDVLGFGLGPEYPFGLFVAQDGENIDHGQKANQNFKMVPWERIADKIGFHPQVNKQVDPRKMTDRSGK
measurement.description: Activity of the phytase on phytate and myo-inositol monophosphate substrates
Assay type: biochemical
condition.details: 2 mM substrate, 37° C. for 15 min, 20 mM Tris/HCl (pH7.0) buffer; relative to phytate = 100
Give the value in % but do not write % after it.

IN: For the molecule shown here, O=P(O)(O)OC1[C@@H](O)[C@H](O)C(O)[C@H](O)[C@H]1O (stereo partly shown) [2′-monophosphoinositol, mio-inositol 2-monophosphate] , give the reported Relative Enzyme Activity (%).
OUT: 28

IN: For the molecule shown here, O=P(O)(O)O[C@H]1[C@H](OP(=O)(O)O)[C@@H](OP(=O)(O)O)[C@H](OP(=O)(O)O)[C@@H](OP(=O)(O)O)[C@H]1OP(=O)(O)O [Phytate, myo-inositol, hexaphosphate] , give the reported Relative Enzyme Activity (%).
OUT: 100

IN: For the molecule shown here, O=P(O)(O)OC1[C@H](O)[C@H](O)C(O)[C@H](O)[C@H]1O (stereo partly shown) [1′-monophosphoinositol, mio-inositol 1-monophosphate] , give the reported Relative Enzyme Activity (%).
OUT: 27

Pending molecule:
IN: For the molecule shown here, O=P(O)(O)OC1[C@@H](O)[C@@H](O)C(O)[C@H](O)[C@H]1O (stereo partly shown) [4′-monophosphoinositol, myo-inositol 4-monophosphate] , give the reported Relative Enzyme Activity (%).
OUT: 40

Sourced from patent US6808909B2
